Test system: TRFP primed T cell cultures
Assay: T cell proliferation assay (tritiated thymidine incorporation) of TRFP-primed T cells restimulated with allergens or peptides
Assay type: cell-based, human
Conditions: Chain #2 TRFP peptides; cat allergic patients; average of responding patients
In this section we review reported SI values for a set of substances.
Reply with the value as a number alone.

Solved entries:
{"Substance": "Fel 29: TRFP chain 2 peptide, amino acids 74 - 92 (MGEAVQNTVEDLKLNTLGR; UniProt P30440 91-109, looked up, fragment)", "Readout": "SI", "Measured Value": 5.5}
{"Substance": "Fel 31-2: TRFP chain 2 peptide, amino acids 14 - 39 (FFAVANGNELLLDLSLTKVNATEPER; UniProt P30440 31-56, looked up, fragment)", "Readout": "SI", "Measured Value": 8.1}

Note: attention shifts to another entry.
q: # lookup: SI of Fel 25: TRFP chain 2 peptide, amino acids 49 - 68 (YVENGLISRVLDGLVMTTIS; UniProt P30440 66-85, looked up, fragment)
a: 7.6

Where do the numbers come from? From patent EP0500785B1.
